# ASSAY: binders of r(CAG) RNA repeats, primary screen, biochemical, fluorescence (AID 651821);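 note: 0% = DMSO alone and 100% = 100 µM mitoxantrone as full dye displacement; higher means more dye released from RNA so lower well fluorescence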
# TEST_CONDITIONS: r(CAG) RNA repeat, TO-PRO-1 dye displacement fluorescence; at 3 µM; stronger effect = higher value
The campaign covered roughly 370,000 compounds. About 4,700 (1.3%) were called active. Many of the other results were omitted from the sample, so actives are more common in it than they were.
Catalogue of inhibition values
Hi! Could you send only the number? It should be in %, unit omitted.

> print(dat)
                                   molecule  value
1  O=C(c1c[nH]c2ccccc12)N1CCC(Oc2cccnc2)CC1   0.25

For the molecule O=C(O)CCn1cc(/C=C/C(=O)c2ccc(Cl)cc2)c(-c2cccc(Br)c2)n1 , what inhibition is on record?
82.8

For the molecule O=C(CSCc1ccc([N+](=O)[O-])cc1)Nc1cccc(C(=O)Nc2ccccc2C(=O)O)c1 , what inhibition is on record?
67.2

For the molecule Cc1sc(NC(=O)c2ccc3ncsc3c2)c(C(N)=O)c1C , what inhibition is on record?
35.7

----------
# ASSAY: binders of r(CAG) RNA repeats, primary screen, biochemical, fluorescence (AID 651821)
# TEST_CONDITIONS: r(CAG) RNA repeat, TO-PRO-1 dye displacement fluorescence; at 3 µM
Among all 370,000 compounds or so, about 4,700 (1.3%) were called active.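 How the source made its calls: active means inhibition above the plate cutoff, the mean of all test compounds on that plate plus 3 SD (cut at about 35% in these data); inactive means the rest.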 Shown is part of a subset that was picked to be rich in actives.
Return exactly one item of active, inactive

Known results for compounds:
> print(dat)
                                   compound  class.assignment
1  CC(C)NC(=O)c1ccc(Sc2ccccc2)c([N+](=O)[O-])c1          inactive
2  Cc1ccc(NC(=O)CSc2sc3c(O)cc(=O)[nH]c3c2C#N)cc1C            active
3  Nc1ccn([C@@H]2O[C@H](C(=O)N[C@H]3CCCCNC3=O)[C@@H](O)[C@H]2O)c(=O)n1          inactive
4    O=C(CSc1nc2c(c(=O)[nH]1)CCCC2)N1CCCCC1          inactive
5  COc1ccc(S(=O)(=O)NCC(c2ccc(C)cc2)N2CCN(C)CC2)cc1OC (stereo not given)          inactive
6  COCC(C)NC(=O)COc1nncc2ccccc12 (stereo not given)          inactive
7  CN1CCCCC(NC(=O)C(C)(C)C)C1=O (stereo not given)          inactive
8  Nc1ncnc2c1ncn2[C@@H]1O[C@H](C(=O)N[C@@H](CCc2ccccc2)C(=O)N2CCCN(Cc3cccs3)CC2)[C@@H](O)[C@H]1O          inactive
9  CCCCCC(O)c1cccc(OCc2ccc3ccccc3n2)c1 (stereo not given)          inactive

We now examine a further compound.
Would you mind telling me which call this test gave Cn1c2c(c(=O)n(C)c1=O)CN(Cc1ccco1)CN2 ?
inactive

----------
# ASSAY: binders of r(CAG) RNA repeats, primary screen, biochemical, fluorescence (AID 651821)
# TEST_CONDITIONS: r(CAG) RNA repeat, TO-PRO-1 dye displacement fluorescence; at 3 µM; stronger effect = higher value
Among all 370,000 compounds or so, about 4,700 (1.3%) were called active. Only a selection was taken, and actives are over-represented in it overall.
PROPERTY_LABEL: inhibition

Solved cases below.
> print(dat)
                                   compound  property.label              value
1  O=C(Nc1ccc(F)cc1)N1CCCC(c2nc3c(nnn3Cc3ccccc3Cl)c(=O)[nH]2)C1 (configuration not stated)      inhibition   0.69% (inactive)
2   COc1cc(C)c(C)cc1S(=O)(=O)N1CCCc2ccccc21      inhibition  -3.84% (inactive)

For the compound CCOC(=O)[C@]12CCCC=C1N(Cc1ccc(OC)cc1)C(=O)[C@@H]2CC(=O)N1CCOCC1 , what inhibition is on record?
-1.51% (inactive)

For the compound O=C(O)/C(=C/c1cccnc1)NC(=O)c1ccccc1 , what inhibition is on record?
1.01% (inactive)

----------
# ASSAY: binders of r(CAG) RNA repeats, primary screen, biochemical, fluorescence (AID 651821);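 note: 0% = DMSO alone and 100% = 100 µM mitoxantrone as full dye displacement; higher means more dye released from RNA so lower well fluorescence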
# TEST_CONDITIONS: r(CAG) RNA repeat, TO-PRO-1 dye displacement fluorescence; at 3 µM; stronger effect = higher value
The campaign covered roughly 370,000 compounds. About 4,700 (1.3%) were called active. For the sample, actives were picked, then their nearest neighbours and some compounds at random.
PROPERTY_LABEL: inhibition (%)
Hi! Could you send only the number? It should be in %, unit omitted.

> print(dat)
                                   molecule  value
1  COC(=O)Cc1csc(Nc2c(C)n(C)n(-c3ccccc3)c2=O)n1   3.58

For the molecule COC(=O)c1ccc(CSc2nnc(NC(C)C)s2)cc1 , what inhibition is on record?
-4.56

For the molecule CCC(C)Cn1c(O)cc2nn(-c3nc4ccccc4s3)c(=O)c-2c1C (stereo not given) , what inhibition is on record?
56.8

For the molecule O=C(NC1CCCCN(Cc2cccc(C(F)(F)F)c2)C1=O)c1ccccc1I (stereo not given) , what inhibition is on record?
-0.65

For the molecule Cc1ccc(Cn2cc(CN3[C@@H](C)COc4cc(Br)ccc4S3(=O)=O)nn2)cc1 , what inhibition is on record?
3.68

----------
# ASSAY: binders of r(CAG) RNA repeats, primary screen, biochemical, fluorescence (AID 651821);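 note: 0% = DMSO alone and 100% = 100 µM mitoxantrone as full dye displacement; higher means more dye released from RNA so lower well fluorescence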
# TEST_CONDITIONS: r(CAG) RNA repeat, TO-PRO-1 dye displacement fluorescence; at 3 µM; stronger effect = higher value
Among all 370,000 compounds or so, about 4,700 (1.3%) were called active. This excerpt belongs to a sample that is enriched for actives.
Catalogue of inhibition values
Hi! Could you send only the number? It should be in %, unit omitted.

Solved cases below.
> print(dat)
                                   compound  value
1  CC(OC(=O)c1ccccc1N1C(=O)C2C3CCC(C3)C2C1=O)C(=O)c1ccccc1 (stereo unspecified)   -4.3
2  Cc1ccccc1S(=O)(=O)NC(=O)C1(C)CCN1C(=O)Cc1ccc(Cl)cc1Cl (stereo unspecified)   32.5

For the compound C#Cc1ccc(NC(=O)C2(C)CCN2C(=O)Cc2ccc(-c3ccccc3)cc2)cc1 (stereo unspecified) , what inhibition is on record?
9.25

For the compound O=C(NC(=S)N1CCc2ccccc21)c1ccco1 , what inhibition is on record?
0.88

For the compound COC(=O)c1ccc(C(NC(=O)OCc2ccccc2)/C(F)=C/[C@@H](C)C(=O)O)cc1 (stereo partly specified) , what inhibition is on record?
7.38

For the compound NS(=O)(=O)c1ccc(CNC(=S)NC(=O)c2ccco2)cc1 , what inhibition is on record?
0.4

For the compound COc1ccc(Cl)cc1-n1c(=S)sc2c(=O)n(-c3ccc(F)cc3)c(SCC(=O)O)nc21 , what inhibition is on record?
40.9

For the compound O=C(C1CCN(S(=O)(=O)c2ccc(Br)s2)CC1)N1CCN(C2CCCCC2)CC1 , what inhibition is on record?
-5.64

For the compound CCOC(=O)c1ccccc1N1C(=O)C2Sc3[nH]c(=O)sc3C(/C=C/c3ccccc3)C2C1=O (stereo unspecified) , what inhibition is on record?
54

For the compound CCOC(=O)CNC(=O)N(C)[C@H]1C[C@H]2c3[nH]c4c(-c5ccc6c(c5)OCO6)cccc4c3CCN2C(=O)[C@H]1[C@H](C)O , what inhibition is on record?
9.34

For the compound O=C1Oc2ccccc2C(=O)/C1=C/c1ccccc1O , what inhibition is on record?
51

For the compound COCCCNC(=O)C[C@H]1C[C@@]2(C(=O)OC)C(=C[C@H](C(C)(C)C)O[C@@H]2C)N(Cc2ccc3c(c2)OCO3)C1=O , what inhibition is on record?
-0.27

----------
# ASSAY: binders of r(CAG) RNA repeats, primary screen, biochemical, fluorescence (AID 651821);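 note: 0% = DMSO alone and 100% = 100 µM mitoxantrone as full dye displacement; higher means more dye released from RNA so lower well fluorescence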
# TEST_CONDITIONS: r(CAG) RNA repeat, TO-PRO-1 dye displacement fluorescence; at 3 µM; stronger effect = higher value
The whole screen tested about 370,000 compounds, of which about 4,700 (1.3%) were called active. This excerpt belongs to a sample that is enriched for actives.
PROPERTY_LABEL: inhibition (%)
Hi! Could you send only the number? It should be in %, unit omitted.

> print(dat)
                                   compound  property.label  readout.units  value
1  CC(C)c1nc(SCC(=O)Nc2cccc(C(=O)O)c2)c2c3c(sc2n1)CCCC3      inhibition              %   69.3
2  N#Cc1cccc(C(=O)NCC2CCN(C(=O)C(=O)c3cc4ccccc4o3)CC2)c1      inhibition              %   2.89
3  COc1cccc(CNCCc2c[nH]c3ccccc23)c1OCc1ccccc1F      inhibition              %   4.43
4  CCOC(=O)c1c(-c2ccc(C)cc2C)csc1NC(=O)CSc1nnnn1C      inhibition              %   1.95
5  COc1cccc(NC(=O)N(C)C[C@@H]2OCc3cn(nn3)CCCC(=O)N([C@@H](C)CO)C[C@H]2C)c1      inhibition              %   1.49

For the compound Cc1ccc2nc(-c3ccc(CN4CCC(n5cc(-c6ccccc6)[nH]c5=O)CC4)cc3)c(-c3ccccc3)nc2c1 , what inhibition is on record?
9.33

For the compound CN[C@H]1C[C@H]2c3cc(N4CCOCC4)ccc3CCN2C[C@H]1[C@H](C)O , what inhibition is on record?
0.53

For the compound O=C(c1ccccc1)c1ccc(-c2ccccc2C(=O)NC2CCCCN(Cc3ccc(Cl)cc3)C2=O)cc1 (centres undefined) , what inhibition is on record?
12.5

For the compound CCOC(=O)c1c(-c2ccc(-c3ccccc3)cc2)csc1NC(=O)CCC(=O)O , what inhibition is on record?
43.3
